These data points were gathered from ChEMBL document CHEMBL5058577.

system: Fibroblast; test: Multiplex assay against human fibroblast; format: toxicity, cell-based; conditions: 48 h, 1 µM, compound concentration 1 uM, replicate 2
Label 1 (yes) when Population Mitotic Cells (%) < 50%; otherwise 0 (no).

# input Field: below-cutoff. Rule: recorded Population Mitotic Cells (%) strictly less than 50%. Subject: N#Cc1c(Oc2cccc(OS(=O)(=O)CCCC(F)(F)F)c2)cccc1C(F)(F)F
# output 0 (no)

# input # check: Population Mitotic Cells (%) < 50% for CC(/C=C1\SC(=S)N(CCCC(=O)Nc2ccc(C(=O)O)c(O)c2)C1=O)=C\c1ccccc1
# output 0 (no)

# input Identify whether the molecule C[C@H](N)COC(=O)[C@@H](CCCCN)NC(=O)Cc1c(-c2ccc3ccccc3c2)[nH]c2c1ccc1ccccc12 records Population Mitotic Cells (%) below 50%.
# output 1 (yes)

# input Does the reported Population Mitotic Cells (%) of the following molecule sit strictly below 50%? Cl.NCCc1ccc(O)c(O)c1 [DOPAMINE HYDROCHLORIDE]
# output 0 (no)

# input Quick check: does CCCOc1ccc2[nH]cc(C3=CCNCC3)c2n1.Cl have Population Mitotic Cells (%) under 50%?
# output 1 (yes)

# input Criterion: Population Mitotic Cells (%) strictly below 50%. Is it met by NCCc1cn(S(=O)(=O)c2c(Cl)nc3sccn23)c2ccccc12.O=C(O)C(=O)O ?
# output 1 (yes)
